# Test system: Human dermal fibroblasts from Friedreich's Ataxia patients
# protocolSummary: Rescue of BSO-stressed FRDA fibroblasts (Calcein AM viability)
# Assay type: cell-based
# conditionDescription: BSO-stressed FRDA fibroblasts (GM04078), 1 mM BSO, 48 h, first of three experiments, read-out: EC50 Value 1
pEC50: −log10 of the molar value.

# compound, pEC50
rows = [
    ("CCCCCCCCCCC1=C(C)C(=O)C(OC)=C(OC)C1=O [Decylubiquinone, decylubiquinone, reference compound]", 7.30),
    ("COC1=C(OC)C(=O)C(CCCCCCCCCCO)=C(C)C1=O [Idebenone, reference compound]", 5.82),
    ("Cc1c(C)c2c(c(C)c1O)CCC(C)(C(=O)O)O2 (stereo not shown) [Trolox, reference compound]", 5.05),
    ("CC(=O)Oc1c(C)c(C)c2c(c1C)CCC(C)(CCC[C@H](C)CCC[C@H](C)CCCC(C)C)O2 (stereo partly drawn) [alpha-Tocopherol acetate, (+)-α-tocopherol acetate, reference compound]", 6.40),
]

###

# Tested on: human dermal fibroblasts from LHON patients
# protocolSummary: Rescue of BSO-stressed fibroblasts from LHON patients (screen as Example A)
# Type: cell-based
# conditionDescription: Fibroblast, read-out: EC50, protection against LHON
pEC50: −log10 of the molar value.

# smilesString, pEC50
data = [
    ("CC1=C(C)C(=O)C(CCNC(=O)N2CCC(=O)CC2)=C(C)C1=O", "> 6.82"),
]

###

# Test system: human dermal fibroblasts from Parkinson's Disease patients
# protocolSummary: Rescue of BSO-stressed fibroblasts from Parkinson's Disease patients (screen as Example A)
# Assay type: cell-based
# conditionDescription: Fibroblast, BSO-stressed Parkinson's Disease fibroblasts (AG20439), less than about 150 nM, read-out: EC50, protection against PD

# smilesString, EC50
records = [
    ("CC1=C(C)C(=O)C(CCCC(=O)NCc2ccc(Cl)cc2)=C(C)C1=O", "< 150 nM"),
    ("CC1=C(C)C(=O)C(CCCC(=O)Nc2ccc(F)c(F)c2)=C(C)C1=O", "< 150 nM"),
    ("CC1=C(C)C(=O)C(CCCC(=O)N(C)c2ccc(F)cc2)=C(C)C1=O", "< 150 nM"),
]

###

# Tested on: Human dermal fibroblasts from Friedreich's Ataxia patients
# protocolSummary: Rescue of BSO-stressed FRDA fibroblasts (Calcein AM viability)
# Type: cell-based
# conditionDescription: BSO-stressed FRDA fibroblasts (GM04078), average of three experiments, read-out: EC50 Average
pEC50: −log10 of the molar value.

# molecule, assaySystem, pEC50
data = [
    ("CC(=O)Oc1c(C)c(C)c2c(c1C)CCC(C)(CCC[C@H](C)CCC[C@H](C)CCCC(C)C)O2 (stereo partly drawn) [alpha-Tocopherol acetate, (+)-α-tocopherol acetate, reference compound]", "Human dermal fibroblasts from Friedreich's Ataxia patients", 6.52),
    ("CCCCCCCCCCC1=C(C)C(=O)C(OC)=C(OC)C1=O [Decylubiquinone, decylubiquinone, reference compound]", "Human dermal fibroblasts from Friedreich's Ataxia patients", 7.42),
    ("Cc1c(C)c2c(c(C)c1O)CCC(C)(C(=O)O)O2 (stereo not shown) [Trolox, reference compound]", "Human dermal fibroblasts from Friedreich's Ataxia patients", 5.06),
    ("COC1=C(OC)C(=O)C(CCCCCCCCCCO)=C(C)C1=O [Idebenone, reference compound]", "Human dermal fibroblasts from Friedreich's Ataxia patients", 5.92),
]
